# system: green fluorescent protein (GFP), 6His-GFP, tag […], SEQ ID NO: 14
# assay-remarks: Cu(II)-VBIDA affinity for the tag (Table 1)
# reported-conditions: r^2 ≈ 0.98
quantity-kind: Kd (µM)
# value in µM; strip the unit string

Prompt: Identify measured Kd associated with C=Cc1ccc(CN(CC(=O)O)CC(=O)O)cc1.[Cu+2]
Response: 70

---

# system: green fluorescent protein (GFP), n-GFP (native, N-terminus MEFELGT, SEQ ID NO: 1)
# assay-remarks: Cu(II)-VBIDA affinity for the tag (Table 1)
# reported-conditions: r^2 ≈ 0.98
quantity-kind: pKd
When answering, recall that pKd equals minus log10 of the concentration in mol/L, and write that number alone.

Prompt: Identify measured pKd associated with C=Cc1ccc(CN(CC(=O)O)CC(=O)O)cc1.[Cu+2] [Cu(II)-VBIDA, N-(4-vinyl)-benzyl iminodiacetic acid]
Response: 2.77
